- system.under.test: T1, recombinant human TIGIT (Sino Biological) (human, UniProt Q495A1 22-138)
- T1 construct: Bought protein; NP_776160.2; also called human TIGIT antigen; hTIGIT
- T1 sequence: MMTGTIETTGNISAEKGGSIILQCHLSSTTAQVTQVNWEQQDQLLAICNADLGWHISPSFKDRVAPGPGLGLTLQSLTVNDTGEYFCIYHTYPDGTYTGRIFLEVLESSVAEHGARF
- assay.method.text: SPR (Biacore T200), single cycle kinetics, IgG from supernatant captured on anti-human chip, TIGIT as analyte, 1:1 fit;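 note: measured at 25 °C in HBS-P+ with 1% BSA, four ascending TIGIT concentrations, 210 s association per step, one final 900 s dissociation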
assay.endpoint: Kd (nM)
Give the value in nM but do not write nM after it.

# count of solved cases: 2
{"columns": ["binder", "unit.text", "Kd"],
 "data": [
  ["7A6 VH1/Vκ4 humanized antibody (human IgG1, kappa) (antibody, V domains shown, Tested as IgG in supernatant of transiently transfected HEK293 EBNA cells) VH: DVQLQESGPGLVKPSQTLSLTCTVTGYSITSDYAWNWIRQPPGKGLEWMGYISYSGSARYNPSLKSRITISRDTSMNQFSLKLNSVTAEDTATYYCARKGYPAYFAYWGQGTLVTVSS VL: DIQMTQSPSSLSASVGDRVTITCRASQDVSTAVAWYQQKPGQAPRLLIYSASYRYTGVPDRFSGSGSGTDFTLTISSLQAEDVAVYYCQHHYSTPYTFGQGTKLEIKR", "nM", 0.876],
  ["7A6 VH1/Vκ1 humanized antibody (human IgG1, kappa) (antibody, V domains shown, Tested as IgG in supernatant of transiently transfected HEK293 EBNA cells) VH: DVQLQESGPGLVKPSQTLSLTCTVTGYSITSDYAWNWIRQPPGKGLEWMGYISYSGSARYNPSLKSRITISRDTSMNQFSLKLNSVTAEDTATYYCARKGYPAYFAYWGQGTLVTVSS VL: DIVMTQSHSFLSASVGDRVSITCKASQDVSTAVAWYQQKPGQAPELLIYSASYRYTGVPDRFTGSGSGTDFTLTISSLQAEDVAVYYCQHHYSTPYTFGQGTKLEMKR", "nM", 0.554]
]}

Shift focus to the following entry.
// Kd value for 7A6 VH4/Vκ4 humanized antibody (human IgG1, kappa) (antibody, V domains shown, also called 7A6 VH4/Vk4; 7A6VH4/Vk4) VH: QVQLQESGPGLVKPSQTLSLTCTVTGYSITSDYAWNWIRQPPGKGLEWMGYISYSGSARYNPSLKSRVTISRDTSKNQFSLKLSSVTAADTAVYYCARKGYPAYFAYWGQGTLVTVSS VL: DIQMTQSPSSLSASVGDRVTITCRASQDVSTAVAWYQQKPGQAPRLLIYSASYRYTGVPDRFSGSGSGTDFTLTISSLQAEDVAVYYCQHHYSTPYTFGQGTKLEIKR : 1.29
